Target: T1, HCV Core1-169 (HCV-1, UniProt P26664 1-169)
T1 construct: also called recombinant HCV core antigen
T1 sequence: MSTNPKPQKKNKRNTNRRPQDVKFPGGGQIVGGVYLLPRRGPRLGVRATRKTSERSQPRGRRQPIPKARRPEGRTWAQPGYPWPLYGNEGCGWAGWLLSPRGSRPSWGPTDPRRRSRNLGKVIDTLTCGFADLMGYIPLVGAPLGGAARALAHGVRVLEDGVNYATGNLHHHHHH
Assay: EIA, core1-169 captured by mAb 14-153-229; note: test concentration or dose not given here
Threshold check on OD (A492): at or above 1 OD gives y, strictly below gives n.

// known answers, use as guide
# binder, category
measured = [
    ("HCV 208B-281 (antibody, V domains shown) VH: QGQLQQSGAELVKPGASVKLSCKTSGFTFSSSYISWLKQRPGQSLEWIAWIYAGTGGTNYNQKFTDKAQLTVDTSSSTAYMQFSSLTTEDSAIYYCAISGTGFIYWGQGTLVTVSA VL: DVLMTQTPLSLPVSLGDQASISCRSSQSLVHNNGNTYLEWFLQKPGQSPKLLIYKVSNRFSGVPDRFSGSGSGTDFTLKISRVEAEDLGVYYCFQGSHVPFTFGSGTKLEIKR", "n"),
    ("HCV 208B-178 (antibody, V domains shown) VH: DVKLVESGGGLVKLGGSLKLSCAASGFTFSSYYMSWVRQTPEKRLELVAAINSNGGSTYYPDTVKGRFTISRDNAKNTLYLQMSSLKSEDTALYYCARHGGLGRRDWYFDVWGAGTTVTVSS VL: DIVLTQSPASLAVSLGQRATISCRASESVDNYGISFMHWYQQKPGQPPKLLIYRASNLESGIPARFSGSGSRTDFTLTINPVETDDVATYYCQQSNKDPFTFGSGAKLEIKR", "y"),
    ("HCV 208B-556 (antibody, V domains shown) VH: QLQQSGPVLVKPGASVMISCKTSGYTFTENAMHWVKQSHGKSLEWIGGVNPNNGDTIFNQKFKGKATLTVDKSSSTAFMEFRSLTSEESTVYYCVRRELDFFDYWGQGTSVTVSS VL: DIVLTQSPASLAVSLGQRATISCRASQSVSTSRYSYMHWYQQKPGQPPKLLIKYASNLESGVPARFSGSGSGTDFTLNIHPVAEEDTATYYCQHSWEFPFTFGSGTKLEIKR", "y"),
]

Next up:
Exam item: decide whether the reported OD (A492) for HCV 208A-222 (antibody, V domains shown) VH: EVQLQQSGPELEKPGASVRISCKTSGYTFTEYAMHWVKQSHGKSLEWIGGINPNNGNAIYNQIFKDKATLTVDRSSSTAYMGLRSLTFGDSGVYFCVRRQLDYFDYWGQGASLTVSS VL: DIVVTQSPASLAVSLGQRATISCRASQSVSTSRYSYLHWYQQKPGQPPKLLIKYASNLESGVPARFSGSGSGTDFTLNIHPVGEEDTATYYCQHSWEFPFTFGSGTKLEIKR is at least 1 OD.
y

Ref: patent US20170052184A1
